TARGET_OR_TEST_SYSTEM: Bifunctional epoxide hydrolase 2 (Homo sapiens)
Sequence (P34913 whole entry): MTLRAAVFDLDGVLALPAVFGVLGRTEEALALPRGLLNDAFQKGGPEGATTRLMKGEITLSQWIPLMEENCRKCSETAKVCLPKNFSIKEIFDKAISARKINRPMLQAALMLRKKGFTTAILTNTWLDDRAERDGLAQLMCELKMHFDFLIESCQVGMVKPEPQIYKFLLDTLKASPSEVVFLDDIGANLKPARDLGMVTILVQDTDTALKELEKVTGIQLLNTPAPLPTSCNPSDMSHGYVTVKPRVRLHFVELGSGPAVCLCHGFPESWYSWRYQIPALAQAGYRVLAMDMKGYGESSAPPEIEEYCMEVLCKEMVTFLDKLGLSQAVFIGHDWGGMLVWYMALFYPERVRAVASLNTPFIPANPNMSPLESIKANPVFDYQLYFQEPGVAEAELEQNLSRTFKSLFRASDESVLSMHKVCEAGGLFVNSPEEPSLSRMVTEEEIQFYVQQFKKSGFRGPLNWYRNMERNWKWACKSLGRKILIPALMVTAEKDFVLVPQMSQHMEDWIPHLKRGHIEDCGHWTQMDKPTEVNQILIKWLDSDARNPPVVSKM
TEST_NAME: Inhibition of human soluble EH
MEASURED_METRIC: IC50 (nM)

Observe how each entry below is paired with its result.
Form field IC50, entry O=C(NCCC(c1ccccc1)c1ccccc1)c1ccc(=O)[nH]c1 : 8.1

Just so you know, measured IC50 for CS(=O)(=O)c1ccccc1CNC(=O)c1ccc(OCCC(F)(F)F)nc1 came out at 270

Looking up CNS(=O)(=O)c1ccc(CNC(=O)c2ccc(OCC(F)(F)F)nc2)c(Cl)c1 , I found its IC50 recorded as 14

P = N#Cc1ccc(CNC(=O)c2ccc(OCC(F)(F)F)nc2)c(Cl)c1
Q = O=C(NCc1ccccc1)c1ccc(OCCC(F)(F)F)nc1
Prompt line: Of P and Q , which shows the smaller IC50 value? Selection: enter the item's label.
Response line: P

Source listed as ChEMBL document CHEMBL1156061.
